Test system: Human papillomavirus type 1a protein E7 (residues 44-93)
Test Name: small molecules binding HPV E7 44-93 – biochemical, small-molecule microarray, residues 44-93, 635 nm fluorescence, primary screen (AID 1108);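 note: E7 fragment applied at 1 µg/mL in TBST for 1 h at 4 C; score combines spot fluorescence with its signal to noise ratio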
Condition Context: fluorescence 635 nm, higher = more signal
Use fulfilled when the recorded composite z-score is no lower than 1; use not fulfilled when it is lower.

Worked examples follow.
{"Structure Smiles String": "COc1ccccc1CN1C(=O)c2ccccc2[C@](Cc2ccccc2I)(C(=O)NCC(C)C)[C@@H]1c1ccc(CO)cc1", "Tested On": "Human papillomavirus type 1a protein E7 (residues 44-93)", "Class Assignment": "not fulfilled"}
{"Structure Smiles String": "C[C@]1(C(=O)O)c2ccccc2C(=O)N(Cc2cc(F)cc(C(F)(F)F)c2)[C@H]1c1ccc(CO)cc1", "Tested On": "Human papillomavirus type 1a protein E7 (residues 44-93)", "Class Assignment": "not fulfilled"}
{"Structure Smiles String": "CCOC(=O)C[C@H]1[C@H](OC(=O)Cc2ccc3c(c2)OCO3)[C@@H](NC(=O)c2ccc3ccccc3n2)c2cc(OCCCO)ccc2N1C(=O)Cc1ccc(OC)cc1", "Tested On": "Human papillomavirus type 1a protein E7 (residues 44-93)", "Class Assignment": "not fulfilled"}
{"Structure Smiles String": "COCCOC(=O)N1C(=O)[C@@]2(c3cc(C#Cc4ccc(OC)cc4)ccc31)[C@H](c1ccc(OCCO)cc1)N1[C@H](c3ccccc3)[C@H](c3ccccc3)OC(=O)[C@H]1[C@@H]2C(=O)NC[C@H](O)c1ccccc1", "Tested On": "Human papillomavirus type 1a protein E7 (residues 44-93)", "Class Assignment": "fulfilled"}
{"Structure Smiles String": "O=C(NC1CC1)[C@@H]1c2ccccc2C(=O)N(Cc2ccc(OC(F)(F)F)cc2)[C@H]1c1ccc(CO)cc1", "Tested On": "Human papillomavirus type 1a protein E7 (residues 44-93)", "Class Assignment": "fulfilled"}

-- ask Is composite z-score at least 1? Consider CC(C)c1nc2cc(Br)ccc2c(=O)o1
-- reply fulfilled

-- ask API: above_or_equal(metric=composite z-score, cutoff=1) for item CCOC(=O)C1=CC[C@@H](c2ccccc2)N(S(=O)(=O)c2ccc(C)cc2)[C@H]1c1ccccc1I
-- reply not fulfilled

====

Tested On: Homeobox protein Hox-A13 (Mus musculus) (UniProt Q62424)
Sequence (Q62424 whole entry, looked up): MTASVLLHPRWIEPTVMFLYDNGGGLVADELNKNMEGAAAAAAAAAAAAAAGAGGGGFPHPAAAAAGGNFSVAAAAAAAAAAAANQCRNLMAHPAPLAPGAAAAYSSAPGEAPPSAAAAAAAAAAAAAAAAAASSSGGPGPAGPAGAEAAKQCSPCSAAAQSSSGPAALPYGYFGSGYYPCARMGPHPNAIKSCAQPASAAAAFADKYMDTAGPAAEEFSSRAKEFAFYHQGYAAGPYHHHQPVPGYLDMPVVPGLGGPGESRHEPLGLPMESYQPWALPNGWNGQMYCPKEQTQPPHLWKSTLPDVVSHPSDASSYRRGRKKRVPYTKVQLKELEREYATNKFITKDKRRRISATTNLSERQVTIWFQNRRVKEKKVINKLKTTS
Test Name: disruptors of Hoxa13 oligonucleotide interaction – biochemical, fluorescence polarization, labeled oligonucleotide, primary screen (AID 1185)
Condition Context: Hoxa13:DNA binding, 15 min, higher = more signal, called active from +8 up or from −8 down
Where z-score equals or exceeds -3, the correct label is Y; where it does not, the label is N.

Worked cases, answers included:
{"Compound": "COc1cc(C(O)C2C=CC3C(=O)N(c4ccccc4)C(=O)C3N2Nc2ccccc2F)cc(OC)c1OC (stereo not drawn)", "Class Assignment": "N"}
{"Compound": "O=C1NC(=O)C2C1C=CC(C(O)c1ccc(B(O)O)cc1)N2Nc1ccc(Cl)cc1Cl (stereo not drawn)", "Class Assignment": "N"}
{"Compound": "C=CCNC(=O)[C@H]1[C@@H]2C(=O)O[C@@H](c3ccccc3)[C@@H](c3ccccc3)N2[C@@H](c2ccccc2OCCO)[C@]12C(=O)N(C(=O)OCCOC)c1ccc(C#Cc3ccc(OC)cc3)cc12", "Class Assignment": "Y"}
{"Compound": "C=C(COC)C(=O)CC[C@@H](OC(C)=O)c1ccccc1OCCO", "Class Assignment": "N"}
{"Compound": "Cc1ccc(C(C)CC(O)C2C=CC3C(=O)N(C)C(=O)C3N2Nc2ccccc2)o1 (stereo not drawn)", "Class Assignment": "N"}

-- ask # check: z-score of O=C1c2ccccc2[C@@]2(Cc3ccccc3N(Cc3ccccc3)C2=O)[C@H](c2ccc(CO)cc2)N1Cc1ccccc1Cl is greater than or equal to -3
-- reply Y

-- ask Entry NC(=O)N1C(=O)C2C(C1=O)C1C=C(CCCO)C2C(c2ccc(CN3CCCC3)cc2)N1Cc1cc2c(cc1Br)OCO2 (stereo not drawn) : is its z-score no less than -3?
-- reply N

-- ask Check if z-score >= -3 (inclusive). Item: Cc1ccc(N2C(=O)c3ccccc3[C@](C)(C(=O)NCCCN(C)C)[C@@H]2c2ccc(CO)cc2)nc1
-- reply Y
